Target: human A2B receptors (Homo sapiens (Human))
Sequence (P29275 whole entry): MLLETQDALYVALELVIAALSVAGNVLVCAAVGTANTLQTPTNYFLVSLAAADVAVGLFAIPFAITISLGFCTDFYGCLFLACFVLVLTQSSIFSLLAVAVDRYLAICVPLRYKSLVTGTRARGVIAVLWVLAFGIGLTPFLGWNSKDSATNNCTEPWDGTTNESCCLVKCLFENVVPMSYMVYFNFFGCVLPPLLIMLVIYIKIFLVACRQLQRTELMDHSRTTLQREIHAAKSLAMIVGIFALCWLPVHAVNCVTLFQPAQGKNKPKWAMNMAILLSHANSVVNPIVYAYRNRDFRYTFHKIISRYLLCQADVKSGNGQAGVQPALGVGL
Assay: A2B antagonism in cAMP cell-based assay (LANCE cAMP, HEK293)
Conditions: HEK293 cells expressing human A2B receptor
Response field label takes yes (1) when IC50 is strictly below 90 nM and no (0) in all other cases.

Check out these entries, answers already filled in.
Cc1nn(C(C)C(C)O)cc1N1CCC[C@@H](c2nc3c4cc(F)cc(F)c4nc(N)n3n2)C1 (single isomer, unassigned) [Example 192]; yes (1)
COc1cc2nc(N)n3nc(C4CCC(C)N(c5cnn(C(C)(CO)CO)c5)C4)nc3c2cc1F (single isomer, unassigned) [Example 251]; no (0)
CC1CCC(c2nc3c4cc(F)cc(F)c4nc(N)n3n2)CN1c1cnn(CC(C)(O)CO)c1 (single isomer, unassigned) [Example 259]; yes (1)
COc1cc2nc(N)n3nc(C4CCC(C)N(c5cnn(CC6(O)CC6)c5)C4)nc3c2cc1F (single isomer, unassigned) [Example 273]; yes (1)
COc1cc2nc(N)n3nc([C@@H]4CCCN(c5cnn(C(C)C(C)O)c5C)C4)nc3c2cc1F (single isomer, unassigned) [Example 196]; no (0)

(Q) In plain terms, does CC(O)C(C)n1cc(N2CCC[C@@H](c3nc4c5cc(F)cc(F)c5nc(N)n4n3)C2)cn1 (single isomer, unassigned) [Example 203] come in under 90 nM for IC50?
(A) yes (1)

(Q) In plain terms, does COc1cc(F)cc2c1nc(N)n1nc(C3CC(C)CN(c4cn(C(C)(C)CO)nc4C)C3)nc21 (single isomer, unassigned) [Example 175] come in under 90 nM for IC50?
(A) no (0)
